Assay: The drug is tested on WLS-069 corresponding to human gut metagenome with ENA study accession number: PRJEB37062 and ENA sample accession number: ERS12561748 for biotransformation under anaerobic condition. The drug concentrations were measured over 9 timepoints collected between 0 and 24 hours of incubation by liquid-chromatography-coupled mass spectrometry (LC–MS); also: call rule not given here
Details: 2 µM
measurementLabel: Bacterial Biotransformation

Past entries and their recorded results:
CC[C@@H](CO)NC(=O)[C@@H]1C=C2c3cccc4c3c(cn4C)C[C@H]2N(C)C1.O=C(O)/C=C\C(=O)O [METHYSERGIDE MALEATE] = Compound NOT metabolized
CCCCc1nc(Cl)c(CO)n1Cc1ccc(-c2ccccc2-c2nn[nH]n2)cc1 [LOSARTAN] = Compound metabolized
CC(C)NCC(O)c1ccc(NS(C)(=O)=O)cc1 (stereo unspecified) [SOTALOL] = Compound NOT metabolized
NC(CO)(CO)CO.O=C(c1ccccc1)c1ccc2n1CCC2C(=O)O (stereo unspecified) [KETOROLAC TROMETHAMINE] = Compound metabolized

Briefly, Bacterial Biotransformation measured for "CCCCC(=O)N(Cc1ccc(-c2ccccc2-c2nnn[nH]2)cc1)[C@H](C(=O)O)C(C)C" : Compound metabolized

Recorded Bacterial Biotransformation (compound CNCCC(Oc1ccc(C(F)(F)F)cc1)c1ccccc1 (stereo unspecified) [FLUOXETINE] ): Compound NOT metabolized

---

Settings: human gut metagenome, 24 h, 2 µM
measurementLabel: Bacterial Biotransformation

Recorded results for 6 compounds are shown here.
CC(=O)O[C@]1(C(C)=O)CC[C@H]2[C@@H]3C=C(Cl)C4=CC(=O)[C@@H]5C[C@@H]5[C@]4(C)[C@H]3CC[C@@]21C [CYPROTERONE ACETATE] = Compound metabolized
CN1CCC(=C2c3ccccc3CCc3cccnc32)CC1.O=C(O)/C=C\C(=O)O.O=C(O)/C=C\C(=O)O [AZATADINE MALEATE] = Compound NOT metabolized
CC(C)N(CCC(C(N)=O)(c1ccccc1)c1ccccn1)C(C)C.O=P(O)(O)O (configuration not stated) [DISOPYRAMIDE PHOSPHATE] = Compound NOT metabolized
O=C(CCCN1CCC(O)(c2ccc(Cl)cc2)CC1)c1ccc(F)cc1 [HALOPERIDOL] = Compound metabolized
CC(=O)CC(c1ccccc1)c1c(O)c2ccccc2oc1=O (configuration not stated) [WARFARIN] = Compound metabolized
O=C1[C@H](CC[C@H](O)c2ccc(F)cc2)[C@@H](c2ccc(O)cc2)N1c1ccc(F)cc1 [EZETIMIBE] = Compound metabolized

Lab note: measured Bacterial Biotransformation of C#C[C@]1(O)CC[C@H]2[C@@H]3CCC4=CC(=O)CC[C@@H]4[C@H]3CC[C@@]21CC [LEVONORGESTREL] was Compound metabolized

Per the record, Cc1ccc(-c2nc3ccc(C)cn3c2CC(=O)N(C)C)cc1 [ZOLPIDEM] has Bacterial Biotransformation of Compound metabolized

Per the records, this compound ( CCOC(=O)[C@H](CCc1ccccc1)N[C@H]1CCc2ccccc2N(CC(=O)O)C1=O [BENAZEPRIL] ) has Bacterial Biotransformation equal to Compound metabolized

Query OC(CCN1CCCCC1)(c1ccccc1)C1CCCCC1 (configuration not stated) [TRIHEXYPHENIDYL] yields Bacterial Biotransformation of Compound metabolized

# Bacterial Biotransformation (compound: O=C(Nc1ccccc1)OCC(CN1CCCCC1)OC(=O)Nc1ccccc1 (configuration not stated) [DIPERODON] ) is Compound metabolized

// field: Bacterial Biotransformation; key: "CN1CCc2c(c3ccccc3n2Cc2ccccc2)C1.CN1CCc2c(c3ccccc3n2Cc2ccccc2)C1.O=S(=O)(O)c1cccc2c(S(=O)(=O)O)cccc12" ; value = Compound NOT metabolized

---

Conditions: human gut metagenome, 24 h, 2 µM
measurementLabel: Bacterial Biotransformation

See these solved cases before continuing.
CC(C)N(CCC(C(N)=O)(c1ccccc1)c1ccccn1)C(C)C.O=P(O)(O)O (stereo not drawn) [DISOPYRAMIDE PHOSPHATE] = Compound NOT metabolized
Cc1ccc(-c2nc3ccc(C)cn3c2CC(=O)N(C)C)cc1 = Compound metabolized
Cc1ccc(/C(=C\CN2CCCC2)c2ccccn2)cc1 = Compound metabolized
OC(CCN1CCCCC1)(c1ccccc1)C1CC2C=CC1C2 (stereo not drawn) = Compound metabolized
O=C1[C@H](CC[C@H](O)c2ccc(F)cc2)[C@@H](c2ccc(O)cc2)N1c1ccc(F)cc1 = Compound NOT metabolized
O=C1NCC2(CCN(CCc3ccccc3)CC2)O1 [FENSPIRIDE] = Compound NOT metabolized
O=C(Nc1ccccc1)OCC(CN1CCCCC1)OC(=O)Nc1ccccc1 (stereo not drawn) = Compound metabolized
Cc1ccccc1N1C(=O)c2cc(S(N)(=O)=O)c(Cl)cc2NC1C (stereo not drawn) = Compound NOT metabolized
CCC(COC(=O)c1cc(OC)c(OC)c(OC)c1)(c1ccccc1)N(C)C.O=C(O)/C=C\C(=O)O (stereo not drawn) = Compound metabolized
COc1cc2nc(N3CCN(C(=O)c4ccco4)CC3)nc(N)c2cc1OC = Compound metabolized

Reported Bacterial Biotransformation for CN1C(=O)CC(C)(c2ccccc2)C1=O (stereo not drawn) [METHSUXIMIDE] was Compound NOT metabolized

Bacterial Biotransformation measured on COc1ccccc1OCC(O)COC(N)=O (stereo not drawn) = Compound NOT metabolized

// recorded Bacterial Biotransformation for CCN(CC)CC#CCOC(=O)C(O)(c1ccccc1)C1CCCCC1.Cl (stereo not drawn) [OXYBUTYNIN CHLORIDE] : Compound metabolized

// Bacterial Biotransformation lookup, compound = COc1ccc2[nH]c([S+]([O-])Cc3ncc(C)c(OC)c3C)nc2n1 (stereo not drawn) , result: Compound metabolized

The compound identified as CC(CN1c2ccccc2Sc2ccccc21)N(C)C (stereo not drawn) registered its Bacterial Biotransformation at Compound NOT metabolized

Bacterial Biotransformation in this record for CC(=O)CC(c1ccccc1)c1c(O)c2ccccc2oc1=O (stereo not drawn) : Compound metabolized

Noted for "CN1C(C(=O)Nc2ccccn2)=C(O)c2sccc2S1(=O)=O" : its Bacterial Biotransformation reads Compound NOT metabolized

GET /value?item= "CCCCC1=NC2(CCCC2)C(=O)N1Cc1ccc(-c2ccccc2-c2nnn[nH]2)cc1" &field=Bacterial Biotransformation returns Compound metabolized

CC(=O)OCC(=O)[C@@]1(O)[C@@H](C)C[C@H]2[C@@H]3CCC4=CC(=O)C=C[C@]4(C)[C@@]3(F)[C@@H](O)C[C@@]21C [BETAMETHASONE ACETATE] has a reported Bacterial Biotransformation of Compound metabolized

Bacterial Biotransformation reading for "CCCCC(=O)N(Cc1ccc(-c2ccccc2-c2nnn[nH]2)cc1)[C@H](C(=O)O)C(C)C" : Compound metabolized

"Nc1ccc(/N=N/c2ccccc2)c(N)n1" has a reported Bacterial Biotransformation of Compound metabolized

Value of measured Bacterial Biotransformation for the entry "COC(=O)[C@H]1[C@H]2C[C@@H]3c4[nH]c5cc(OC)ccc5c4CCN3C[C@H]2C[C@@H](OC(=O)c2cc(OC)c(OC)c(OC)c2)[C@@H]1OC" : Compound metabolized

Note to self: Bacterial Biotransformation recorded for COCCc1ccc(OCC(O)CNC(C)C)cc1.COCCc1ccc(OCC(O)CNC(C)C)cc1.O=C(O)C(O)C(O)C(=O)O (stereo not drawn) [METOPROLOL TARTRATE] was Compound NOT metabolized

Entry "OC(Cn1cncn1)(Cn1cncn1)c1ccc(F)cc1F" ; Bacterial Biotransformation = Compound metabolized

Recorded result, CCN(CC)CCNC(C(=O)OCCC(C)C)c1ccccc1.Cl.Cl (stereo not drawn) , Bacterial Biotransformation: Compound metabolized

Record summary for "COc1cc2c(c(OC)c1OC)-c1ccc(OC)c(=O)cc1[C@@H](NC(C)=O)CC2" : reported Bacterial Biotransformation = Compound metabolized

Measured Bacterial Biotransformation of "COC1=CC(=O)C[C@@H](C)[C@]12Oc1c(Cl)c(OC)cc(OC)c1C2=O" : Compound metabolized

The recorded Bacterial Biotransformation for entry CS(=O)(=O)O.O.O.O.O=C1Cc2cc(CCN3CCN(c4nsc5ccccc45)CC3)c(Cl)cc2N1 [ZIPRASIDONE MESYLATE] equals Compound metabolized

---

Conditions: human gut metagenome, 24 h, 2 µM
measurementLabel: Bacterial Biotransformation

Example results:
CCOC(=O)[C@H](CCc1ccccc1)N[C@@H](C)C(=O)N1[C@H](C(=O)O)C[C@@H]2CCC[C@@H]21 = Compound metabolized
NS(=O)(=O)c1cc2c(cc1Cl)N=C(CSCc1ccccc1)NS2(=O)=O [BENZTHIAZIDE] = Compound NOT metabolized
CCCC1O[C@@H]2C[C@H]3[C@@H]4CCC5=CC(=O)C=C[C@]5(C)[C@H]4[C@@H](O)C[C@]3(C)[C@]2(C(=O)CO)O1 (some centres not stated) [BUDESONIDE] = Compound metabolized
CNC(=C[N+](=O)[O-])NCCSCc1ccc(CN(C)C)o1 [RANITIDINE] = Compound metabolized
C=CCc1ccccc1OCC(O)CNC(C)C (configuration not stated) [ALPRENOLOL] = Compound metabolized
CN1CCC(=C2c3ccccc3CCc3cccnc32)CC1.O=C(O)/C=C\C(=O)O.O=C(O)/C=C\C(=O)O [AZATADINE MALEATE] = Compound NOT metabolized

In plain terms, Cc1nc2n(c(=O)c1CCN1CCC(c3noc4cc(F)ccc34)CC1)CCCC2O (configuration not stated) [PALIPERIDONE] has a documented Bacterial Biotransformation of Compound metabolized

molecule Nc1c2c(nc3ccccc13)CCCC2 [TACRINE] , Bacterial Biotransformation observed: Compound metabolized

Given item CS(=O)(=O)O.OC(CCN1CCCCC1)(c1ccccc1)c1ccccc1 [PRIDINOL METHANESULFONATE] , the value recorded as its Bacterial Biotransformation is Compound metabolized

Form field Bacterial Biotransformation, entry O=P(O)(O)O.c1ccc(CN(CC2=NCCN2)c2ccccc2)cc1 [ANTAZOLINE PHOSPHATE] : Compound metabolized

Summary for this molecule, O=C1NCC2(CCN(CCc3ccccc3)CC2)O1 [FENSPIRIDE] : Bacterial Biotransformation is Compound NOT metabolized

Sample CC(C)NCC(O)COc1ccc(COCCOC(C)C)cc1.CC(C)NCC(O)COc1ccc(COCCOC(C)C)cc1.O=C(O)/C=C/C(=O)O (configuration not stated) [BISOPROLOL FUMARATE] ; Bacterial Biotransformation observed: Compound NOT metabolized

Lab note: measured Bacterial Biotransformation of C#C[C@]1(O)CC[C@H]2[C@@H]3CCC4=CC(=O)CC[C@@H]4[C@H]3CC[C@@]21CC [LEVONORGESTREL] was Compound metabolized

For this molecule ( C[C@@H]1CC[C@H]2[C@@H](C)C(=O)O[C@@H]3O[C@@]4(C)CC[C@@H]1[C@]32OO4 [ARTEMISININ] ), measured Bacterial Biotransformation is Compound metabolized

// sample CN1CCN(C2=Nc3cc(Cl)ccc3Nc3ccccc32)CC1 [CLOZAPINE] , its Bacterial Biotransformation was Compound NOT metabolized

Entry under test: CN/C(=N/CCSCc1nc[nH]c1C)NC#N [CIMETIDINE] . Its Bacterial Biotransformation was Compound metabolized

Summary for this molecule, CN1C(=O)CC(C)(c2ccccc2)C1=O (configuration not stated) [METHSUXIMIDE] : Bacterial Biotransformation is Compound NOT metabolized

Bacterial Biotransformation recorded for this molecule, OC(Cn1cncn1)(Cn1cncn1)c1ccc(F)cc1F [FLUCONAZOLE] , is Compound metabolized

Measured Bacterial Biotransformation of COc1ccccc1OCC(O)COC(N)=O (configuration not stated) [METHOCARBAMOL] : Compound NOT metabolized

Noted for COc1cc2c(c(OC)c1OC)-c1ccc(OC)c(=O)cc1[C@@H](NC(C)=O)CC2 [COLCHICINE] : its Bacterial Biotransformation reads Compound metabolized

Input CC(CN(C)C)CN1c2ccccc2CCc2ccccc21.O=C(O)/C=C\C(=O)O (configuration not stated) [TRIMIPRAMINE MALEATE] . Output Bacterial Biotransformation: Compound metabolized

Bacterial Biotransformation recorded for this molecule, CO[C@]12C[C@@H](COC(=O)c3cncc(Br)c3)CN(C)[C@@H]1Cc1cn(C)c3cccc2c13 [NICERGOLINE] , is Compound NOT metabolized
